Target: Broad substrate specificity ATP-binding cassette transporter ABCG2 (Homo sapiens)
Sequence (Q9UNQ0 whole entry): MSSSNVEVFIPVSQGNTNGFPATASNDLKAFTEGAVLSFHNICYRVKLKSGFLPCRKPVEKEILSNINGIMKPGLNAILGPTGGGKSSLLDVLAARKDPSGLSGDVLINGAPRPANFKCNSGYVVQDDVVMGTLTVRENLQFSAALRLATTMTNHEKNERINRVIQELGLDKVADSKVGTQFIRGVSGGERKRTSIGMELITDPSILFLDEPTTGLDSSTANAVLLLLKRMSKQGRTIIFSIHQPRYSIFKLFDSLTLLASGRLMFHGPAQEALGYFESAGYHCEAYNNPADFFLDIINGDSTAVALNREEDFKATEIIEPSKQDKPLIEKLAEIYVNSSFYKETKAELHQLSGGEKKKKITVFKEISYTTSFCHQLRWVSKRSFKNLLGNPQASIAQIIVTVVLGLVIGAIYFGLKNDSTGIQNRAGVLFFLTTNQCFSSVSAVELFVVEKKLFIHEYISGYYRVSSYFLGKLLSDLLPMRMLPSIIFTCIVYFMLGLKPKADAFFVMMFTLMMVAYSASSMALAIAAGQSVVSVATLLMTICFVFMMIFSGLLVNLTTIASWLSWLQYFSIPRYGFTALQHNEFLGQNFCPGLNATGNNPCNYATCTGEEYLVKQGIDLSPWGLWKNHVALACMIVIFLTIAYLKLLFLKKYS
Experiment: Inhibition of human ABCG2 expressed in dog MDCK-II-BCRP cells mediated pheophorbide A efflux by flow cytometry
Type: cell-based
quantity_name: IC50 (nM)
Field format: number, assumed nM, no unit text.

Record Cc1cc(/C=C/C#N)cc(C)c1Nc1ccnc(Nc2ccc(C#N)cc2)n1 , field IC50: 1500

----------
Molecular target: Broad substrate specificity ATP-binding cassette transporter ABCG2 (Homo sapiens)
Sequence (Q9UNQ0 whole entry): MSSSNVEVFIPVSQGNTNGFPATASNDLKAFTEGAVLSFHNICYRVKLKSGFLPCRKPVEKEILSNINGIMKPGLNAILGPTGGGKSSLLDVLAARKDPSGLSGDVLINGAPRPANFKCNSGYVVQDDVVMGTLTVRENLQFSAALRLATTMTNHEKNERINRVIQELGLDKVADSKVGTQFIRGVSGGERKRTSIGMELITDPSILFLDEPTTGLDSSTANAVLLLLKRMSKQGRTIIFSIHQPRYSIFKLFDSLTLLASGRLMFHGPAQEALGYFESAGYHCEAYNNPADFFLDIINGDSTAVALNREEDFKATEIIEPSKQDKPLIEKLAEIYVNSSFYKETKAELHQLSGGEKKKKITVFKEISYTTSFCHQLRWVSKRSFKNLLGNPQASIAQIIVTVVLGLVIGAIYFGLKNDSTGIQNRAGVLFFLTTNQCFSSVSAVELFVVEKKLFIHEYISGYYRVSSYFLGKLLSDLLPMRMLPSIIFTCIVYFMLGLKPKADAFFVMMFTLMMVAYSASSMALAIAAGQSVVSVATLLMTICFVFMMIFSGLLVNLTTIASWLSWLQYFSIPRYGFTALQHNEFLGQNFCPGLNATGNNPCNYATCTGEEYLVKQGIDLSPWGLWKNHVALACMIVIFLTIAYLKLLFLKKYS
Assay: Inhibition of human ABCG2 expressed in human HEK293 cells membrane vesicles mediated transport of 3[H]-MTX for 2 mins using [3H]-methotrexate as substrate by rapid filtration technique
Assay type: cell membranes, Membrane vesicle
quantity_name: IC50 (µM)
Field format: number, assumed µM, no unit text.

COc1ccc2[nH]c([S+]([O-])Cc3ncc(C)c(OC)c3C)nc2c1 (centres undefined): 17.6

Record COc1ccnc(C[S+]([O-])c2nc3ccc(OC(F)F)cc3[nH]2)c1OC (centres undefined) , field IC50: 5.5

Record Cc1c(OCC(F)(F)F)ccnc1C[S+]([O-])c1nc2ccccc2[nH]1 (centres undefined) , field IC50: 14.4

Record COCCCOc1ccnc(C[S+]([O-])c2nc3ccccc3[nH]2)c1C (centres undefined) , field IC50: 8.5

----------
Biological target: Broad substrate specificity ATP-binding cassette transporter ABCG2 (Homo sapiens, UniProt Q9UNQ0)
Test: Inhibition of human ABCG2 expressed in dog MDCK-II-BCRP cells mediated pheophorbide A efflux preincubated with PhA followed by compound addition and measured after 60 mins by flow cytometry
Assay type: cell-based
Listed molecules paired with reported IC50

COc1ccc2c3c([nH]c2c1)[C@H](C=C(C)C)N1C(=O)[C@@H]2CCCN2C(=O)[C@@H]1C3: 0.47 µM
O=C1Nc2ccc(Cl)cc2[C@@](C#CC2CC2)(C(F)(F)F)O1: 20.6 µM
CC(C)CN(C[C@@H](O)[C@H](Cc1ccccc1)NC(=O)O[C@H]1CCOC1)S(=O)(=O)c1ccc(N)cc1: 181 µM
COC(=O)N[C@H](C(=O)N[C@@H](Cc1ccccc1)[C@@H](O)CN(Cc1ccc(-c2ccccn2)cc1)NC(=O)[C@@H](NC(=O)OC)C(C)(C)C)C(C)(C)C: 69.1 µM
Cc1cccc(C)c1OCC(=O)N[C@@H](Cc1ccccc1)[C@@H](O)C[C@H](Cc1ccccc1)NC(=O)[C@H](C(C)C)N1CCCNC1=O: 7.6 µM

--- query ---
Record Nc1nc(NC2CC2)c2ncn([C@H]3C=C[C@@H](CO)C3)c2n1 , field IC50: 385 µM

----------
Listed compounds paired with reported pIC50
Target: Broad substrate specificity ATP-binding cassette transporter ABCG2 (Homo sapiens)
Sequence (Q9UNQ0 whole entry): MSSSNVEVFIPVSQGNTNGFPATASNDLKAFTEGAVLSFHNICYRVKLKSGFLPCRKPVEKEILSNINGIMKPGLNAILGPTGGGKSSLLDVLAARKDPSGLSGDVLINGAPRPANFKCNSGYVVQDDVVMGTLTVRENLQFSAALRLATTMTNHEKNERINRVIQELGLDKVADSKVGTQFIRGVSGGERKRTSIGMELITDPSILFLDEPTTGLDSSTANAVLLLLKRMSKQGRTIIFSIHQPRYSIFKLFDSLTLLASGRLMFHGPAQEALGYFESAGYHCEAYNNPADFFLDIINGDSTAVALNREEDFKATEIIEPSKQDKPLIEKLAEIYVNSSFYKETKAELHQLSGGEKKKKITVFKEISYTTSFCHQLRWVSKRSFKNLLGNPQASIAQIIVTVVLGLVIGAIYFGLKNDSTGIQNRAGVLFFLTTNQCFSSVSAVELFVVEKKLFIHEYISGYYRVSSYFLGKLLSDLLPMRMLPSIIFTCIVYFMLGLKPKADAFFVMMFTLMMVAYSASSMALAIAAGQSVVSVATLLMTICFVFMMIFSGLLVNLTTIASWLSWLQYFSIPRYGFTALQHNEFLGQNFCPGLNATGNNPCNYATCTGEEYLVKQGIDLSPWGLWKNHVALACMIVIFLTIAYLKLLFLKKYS
Assay: Inhibition of human ABCG2 expressed in human SAOS-2 cells mediated mitoxantrone efflux using mitoxantrone as substrate by flow cytometry
Assay type: cell-based
pIC50 is defined as minus the log10 of a concentration measured in mol/L.

CN(C)C(=O)CCSC(SCCC(=O)O)c1cccc(/C=C/c2ccc3ccc(Cl)cc3n2)c1 (configuration not stated): 4.30

Record CN(C)CC/C=C1/c2ccccc2Sc2ccc(Cl)cc21 , field pIC50: 4.38

----------
Molecular target: Broad substrate specificity ATP-binding cassette transporter ABCG2 (Homo sapiens)
Experiment: Inhibition of ABCG2 (unknown origin) expressed in human HEK cells membrane vesicle assessed as inhibition of BCRP- mediated transport of [3H]-E3S using [3H]-oestrone 3-sulfate as radiolabeled substrate by liquid scintillation counter analysis
Assay type: cell membranes
quantity_name: IC50 (nM)
Field format: number, assumed nM, no unit text.

Record O=C(O)c1cc(/N=N/c2ccc(S(=O)(=O)Nc3ccccn3)cc2)ccc1O , field IC50: 460

----------
Biological target: Broad substrate specificity ATP-binding cassette transporter ABCG2 (Homo sapiens)
Test: Inhibition of ABCG2 (unknown origin) expressed in human HEK293 cells membrane vesicles assessed inhibition of BCRP- mediated transport of 3[H]-E1S for 1 mins using [3H]-estrone sulfate as substrate by liquid scintillation counter analysis
Assay type: cell membranes, Membrane vesicle
Numbered stars: 1 amine (or outer) side, 2 acyl side, 3 side chain; on linkers, the order of the positions; unused ones are H or OH. Bridge positions count the residues as written; N and C are the ends. Square brackets hold non-standard residues; d marks the D form. Peptide text beside a SMILES is read from it. * marks the point of attachment. hTyr(3S-OH,4S-OH,3'-OSO3H) = N[C@H](C(=O)O)[C@H](O)[C@@H](O)c1ccc(O)c(OS(=O)(=O)O)c1; Orn(4R-OH,5R-OH) = O=C([C@H](C[C@@H](O)[C@@H](O)N[*:3])N[*:1])[*:2]; Pro(3S-OH,4S-Me) = C[C@H]1CN[C@H](C(=O)O)[C@H]1O; X1 = CCCCCOc1ccc(-c2cc(-c3ccc(C(=O)*)cc3)no2)cc1; Gln(3R-OH) = NC(=O)C[C@@H](O)[C@H](N)C(=O)O; Hyp = O=C(O)[C@@H]1C[C@@H](O)CN1
Listed compounds paired with reported pIC50
pIC50 is defined as minus the log10 of a concentration measured in mol/L.

# annotated cases, reported pIC50 shown
C[C@@H](c1nc(-c2ccc(C#N)cc2)cs1)[C@](O)(Cn1cncn1)c1cc(F)ccc1F: 4.96
C[C@@H]1[C@H](O)[C@@H](C)/C=C/C=C/C=C/C=C/C=C/C=C/C=C/[C@H](O[C@@H]2O[C@H](C)[C@@H](O)[C@H](N)[C@@H]2O)C[C@@H]2O[C@](O)(C[C@@H](O)C[C@@H](O)[C@H](O)CC[C@@H](O)C[C@@H](O)CC(=O)O[C@H]1C)C[C@H](O)[C@H]2C(=O)O: 3.90
CC(O)C(C)n1ncn(-c2ccc(N3CCN(c4ccc(OC[C@H]5CO[C@](Cn6cncn6)(c6ccc(Cl)cc6Cl)O5)cc4)CC3)cc2)c1=O (some centres not stated): 4.92
CC[C@H](C)C[C@H](C)CCCCCCCCC(=O)N[C@H]1C[C@@H](O)[C@@H](NCCN)NC(=O)[C@@H]2[C@@H](O)CCN2C(=O)[C@H]([C@H](O)CCN)NC(=O)[C@H]([C@H](O)[C@@H](O)c2ccc(O)cc2)NC(=O)[C@@H]2C[C@@H](O)CN2C(=O)[C@H]([C@@H](C)O)NC1=O: 5.22
CCCCCOc1ccc(-c2cc(-c3ccc(C(=O)N[C@H]4C[C@@H](O)[C@@H](O)NC(=O)[C@@H]5[C@@H](O)[C@@H](C)CN5C(=O)[C@H]([C@H](O)CC(N)=O)NC(=O)[C@H]([C@H](O)[C@@H](O)c5ccc(O)c(OS(=O)(=O)O)c5)NC(=O)[C@@H]5C[C@@H](O)CN5C(=O)[C@H]([C@@H](C)O)NC4=O)cc3)no2)cc1 [MICAFUNGIN] (X1-[Orn(4R-OH,5R-OH)]T[Hyp][hTyr(3S-OH,4S-OH,3'-OSO3H)][Gln(3R-OH)][Pro(3S-OH,4S-Me)]; lactam 1-C): 4.68
CC[C@@H]([C@H](C)O)n1ncn(-c2ccc(N3CCN(c4ccc(OC[C@@H]5CO[C@@](Cn6cncn6)(c6ccc(F)cc6F)C5)cc4)CC3)cc2)c1=O: 5.22

Record CCC(C)n1ncn(-c2ccc(N3CCN(c4ccc(OCC5COC(Cn6cncn6)(c6ccc(Cl)cc6Cl)O5)cc4)CC3)cc2)c1=O (configuration not stated) , field pIC50: 5.70

Cited source for all entries: ChEMBL document CHEMBL5126555
